# Test system: kochia
# ASSAY NAME: Test C postemergence
# Assay type: in vivo, Bassia scoparia
# APPLIED CONDITIONS: Postemergence, 500 g ai/ha, 10 days, visual 0 to 100 scale (0 no effect, 100 complete control)
ATTRIBUTE MEASURED: Plant response rating, Kochia
Give the value as a plain number.

Record for COc1cc(C(=O)N2C[C@H](C)Oc3c(Cl)cccc32)cc(-n2cnc(C(C)C)n2)c1 [Compound 212] under target or system kochia: Plant response rating, Kochia reported as 90

Record for Cc1cc(-n2cnc(C(C)C)n2)cc(C(=O)N2C[C@H](C)Oc3c(Cl)cccc32)c1F [Compound 223] under target or system kochia: Plant response rating, Kochia reported as 90

Record for Cc1ccc(-n2cnc(CS(C)(=O)=O)n2)cc1C(=O)N1C[C@H](C)Oc2c(Cl)cccc21 [Compound 225] under target or system kochia: Plant response rating, Kochia reported as 90

Record for CCc1ncn(-c2ccc(C)c(C(=O)N3CC(C(F)(F)F)Oc4c(Cl)cccc43)c2)n1 (single isomer, unassigned) [Compound 218] under target or system kochia: Plant response rating, Kochia reported as 100

Record for Cc1cccc2c1OC(C)CN2C(=O)c1cccc(-n2ncnc2C2CC2)c1 (racemic) [Compound 196] under target or system kochia: Plant response rating, Kochia reported as 0

Record for C[C@H]1CN(C(=O)c2cc(-n3cncn3)cc3c2OCCO3)c2cccc(Cl)c2O1 [Compound 153] under target or system kochia: Plant response rating, Kochia reported as 90

Record for Cc1cccc2c1O[C@@H](C)CN2C(=O)c1cccc(-n2cnc(N(C)C)n2)c1 [Compound 226] under target or system kochia: Plant response rating, Kochia reported as 80

Record for Cc1ccc(-n2cnc(C(C)(C)O)n2)cc1C(=O)N1C[C@H](C)Oc2c(C)cccc21 [Compound 256] under target or system kochia: Plant response rating, Kochia reported as 80

Record for CCc1ncn(-c2ccc(OC)c(C(=O)N3C[C@H](COC)Oc4c(Cl)cccc43)c2)n1 [Compound 231] under target or system kochia: Plant response rating, Kochia reported as 90

Record for COC[C@H]1CN(C(=O)c2cc(-n3cncn3)ccc2C)c2cccc(Cl)c2O1 [Compound 263] under target or system kochia: Plant response rating, Kochia reported as 70

---

Would you mind telling me the reported Plant response rating, Ryegrass, Italian of each entry?
# Tested on: ryegrass, Italian
# ASSAY NAME: Test C preemergence
# Type: in vivo, Lolium multiflorum
# APPLIED CONDITIONS: Preemergence, 500 g ai/ha; visual rating after 10 days, 0 to 100 scale (0 no effect, 100 complete control)
Give the value as a plain number.

In plain terms, C[C@H]1CN(C(=O)c2cc(-n3cnc(C4CCC4)n3)cc3c2OCCO3)c2cccc(Cl)c2O1 has a documented Plant response rating, Ryegrass, Italian of 90

In plain terms, Cc1cn(-c2cccc(C(=O)N3C[C@H](C)Oc4c(C)cccc43)c2)cn1 has a documented Plant response rating, Ryegrass, Italian of 20

In plain terms, CC(C)n1cnc(-c2cccc(C(=O)N3C[C@H](C)Oc4c(Cl)cccc43)c2)n1 has a documented Plant response rating, Ryegrass, Italian of 20

In plain terms, Cc1ccc(-n2cnc(C3(C)CCC3)n2)cc1C(=O)N1C[C@H](C)Oc2c(Cl)cccc21 has a documented Plant response rating, Ryegrass, Italian of 90

In plain terms, COC[C@H]1CN(C(=O)c2cc(-n3cnc(C(C)(C)C)n3)ccc2C)c2cccc(Cl)c2O1 has a documented Plant response rating, Ryegrass, Italian of 90

In plain terms, CC(C)=C(C)c1ncn(-c2cccc(C(=O)N3C[C@H](C)Oc4c(C)cccc43)c2)n1 has a documented Plant response rating, Ryegrass, Italian of 90

In plain terms, COc1ccc(-n2cnc(C(C)C)n2)cc1C(=O)N1C[C@H](C)Oc2c1cccc2C(F)(F)F has a documented Plant response rating, Ryegrass, Italian of 90

In plain terms, COc1c(F)cc(-n2cnc(C(C)C)n2)cc1C(=O)N1C[C@H](C)Oc2c(Cl)cccc21 has a documented Plant response rating, Ryegrass, Italian of 100

In plain terms, COC[C@H]1CN(C(=O)c2cc(-n3cnc(C4CCC4)n3)ccc2OC)c2cccc(Cl)c2O1 has a documented Plant response rating, Ryegrass, Italian of 50

In plain terms, CC(C)c1ncn(-c2ccc(S(=O)(=O)C(F)(F)F)c(C(=O)N3C[C@H](C)Oc4c(Cl)cccc43)c2)n1 has a documented Plant response rating, Ryegrass, Italian of 10

In plain terms, COc1cc(-n2cnc(C(C)C)n2)cc(C(=O)N2C[C@H](C)Oc3c(Cl)cccc32)c1OC has a documented Plant response rating, Ryegrass, Italian of 90

In plain terms, COc1cc(C(=O)N2C[C@H](C)Oc3c(Cl)cccc32)cc(-n2cnc(C(C)C)n2)c1 has a documented Plant response rating, Ryegrass, Italian of 100

In plain terms, Cc1cccc2c1O[C@H](C)CN2C(=O)c1cccc(-c2ncn(C(C)C)n2)c1 has a documented Plant response rating, Ryegrass, Italian of 0

In plain terms, COc1cc(C(=O)N2C[C@H](C)Oc3c(Cl)cccc32)cc(-n2cnc(C)n2)c1 has a documented Plant response rating, Ryegrass, Italian of 100

In plain terms, Cc1ccc(-n2cnc(C(C)C)n2)cc1C(=O)N1C[C@H](C)Oc2c1cccc2C(F)(F)F has a documented Plant response rating, Ryegrass, Italian of 100

In plain terms, CCc1ncn(-c2cc3c(c(C(=O)N4C[C@H](C)Oc5c(Cl)cccc54)c2)OCCO3)n1 has a documented Plant response rating, Ryegrass, Italian of 90

---

# System: pigweed, palmer
# ASSAY NAME: Test A preemergence
# Type: in vivo, Amaranthus palmeri
# APPLIED CONDITIONS: 500 g ai/ha, 0 to 100 scale (0 no effect, 100 complete control), 10 days
Would you mind telling me the reported Plant response rating, Pigweed, Palmer of each entry?

Record for Cc1ccc(-n2cnc(C3CC3)n2)cc1C(=O)N1C[C@H](C)Oc2c(Cl)cccc21 [Compound 67] under target or system pigweed, palmer: Plant response rating, Pigweed, Palmer reported as 100

Record for CCc1cccc2c1OC(C)CN2C(=O)c1cccc(-n2cncn2)c1 (centres unmarked) [Compound 43] under target or system pigweed, palmer: Plant response rating, Pigweed, Palmer reported as 80

Record for CC1CN(C(=O)c2cccc(-n3cncn3)c2)c2c(F)cccc2O1 (centres unmarked) [Compound 28] under target or system pigweed, palmer: Plant response rating, Pigweed, Palmer reported as 50

Record for Cc1ccc(-n2cnc(C3CCC3)n2)cc1C(=O)N1C[C@H](C)Oc2c(C)cccc21 [Compound 97] under target or system pigweed, palmer: Plant response rating, Pigweed, Palmer reported as 100

Record for Cc1c(C(=O)N2CC(C)Oc3c(Cl)cccc32)cccc1-n1cncn1 (centres unmarked) [Compound 40] under target or system pigweed, palmer: Plant response rating, Pigweed, Palmer reported as 0

Record for C[C@H]1CN(C(=O)c2cc(-n3cncn3)ccc2C(F)(F)F)c2cccc(Cl)c2O1 [Compound 70] under target or system pigweed, palmer: Plant response rating, Pigweed, Palmer reported as 90

Record for CCc1ncn(-c2cccc(C(=O)N3C[C@H](C)Oc4c(Cl)cccc43)c2)n1 [Compound 91] under target or system pigweed, palmer: Plant response rating, Pigweed, Palmer reported as 100

Record for CC1CN(C(=O)c2cc(F)cc(-n3cncn3)c2)c2cccc(Cl)c2O1 (centres unmarked) [Compound 37] under target or system pigweed, palmer: Plant response rating, Pigweed, Palmer reported as 90

---

# System: Pigweed, Redroot
# ASSAY NAME: Test A preemergence
# Format: in vivo, Amaranthus retroflexus
# APPLIED CONDITIONS: 1000 g ai/ha, 0 to 100 scale (0 no effect, 100 complete control), 10 days
ATTRIBUTE MEASURED: Plant response rating, Pigweed, Redroot
Give the value as a plain number.

In plain terms, C[C@H]1CN(C(=O)c2cccc(-c3ccncc3)c2)c2cccc(Cl)c2O1 [Compound 123] has a documented Plant response rating, Pigweed, Redroot of 30

In plain terms, C[C@H]1CN(C(=O)c2cccc(-n3cncn3)c2)c2cccc(Cl)c2O1 [Compound 18] has a documented Plant response rating, Pigweed, Redroot of 100

In plain terms, C#Cc1cccc2c1OC(C)CN2C(=O)c1cccc(-n2cncn2)c1 (stereo not drawn) [Compound 30] has a documented Plant response rating, Pigweed, Redroot of 100

In plain terms, CC1CN(C(=O)c2ccnc(-n3cncn3)c2)c2ccccc2O1 (stereo not drawn) [Compound 19] has a documented Plant response rating, Pigweed, Redroot of 0

In plain terms, O=C(c1cccc(-n2cncn2)c1)N1CC(C2CC2)Oc2c(Cl)cccc21 (stereo not drawn) [Compound 22] has a documented Plant response rating, Pigweed, Redroot of 60

In plain terms, CC1CN(C(=O)c2ccnc(-n3cncn3)c2)c2cccc(Cl)c2O1 (stereo not drawn) [Compound 9] has a documented Plant response rating, Pigweed, Redroot of 0

In plain terms, CC1CN(C(=O)c2cccc(-n3cncn3)c2)c2ccc(F)cc2O1 (stereo not drawn) [Compound 23] has a documented Plant response rating, Pigweed, Redroot of 0

In plain terms, CC1CN(C(=O)c2cccc(-n3cncn3)c2)c2cccc(Br)c2O1 (stereo not drawn) [Compound 25] has a documented Plant response rating, Pigweed, Redroot of 100

In plain terms, CCC1CN(C(=O)c2ccnc(-n3cncn3)c2)c2cccc(C)c2O1 (stereo not drawn) [Compound 11] has a documented Plant response rating, Pigweed, Redroot of 90
